Cited source: patent US20210338846A1

Tested on: PSMA+ PC-3 PiP and PSMA− PC-3 flu tumors
Conditions: 24 h; co-injection 0.5 nmole YC-I-27
measure-name: Biodistribution: PiP tumor

Dear colleague, could you please provide Biodistribution: PiP tumor for the compounds listed below?
1. O=C(O)CC[C@H](NC(=O)N[C@@H](CCCCN(Cc1ccc([125I])cc1)C(=O)CCCCNC(=O)CN1CCN(CC(=O)O)CCN(CC(=O)O)CCN(CC(=O)O)CC1)C(=O)O)C(=O)O [[^125I]VK-02-90]
2. O=C([O-])CN1CCN(CC(=O)[O-])CCN(CC(=O)NCCCCC(=O)N(CCCC[C@H](NC(=O)N[C@@H](CCC(=O)O)C(=O)O)C(=O)O)Cc2ccc([125I])cc2)CCN(CC(=O)[O-])CC1.[Lu+3] [[^125I]VK-02-90-Lu]
3. O=C(O)CC[C@H](NC(=O)N[C@@H](CCC(=O)NCCc1ccc([125I])cc1)C(=O)O)C(=O)O [[^125I]HS-549]

OUT:
1: 33 ± 6 % injected dose/gram; 2: 16 ± 4 % injected dose/gram; 3: 35 ± 5 % injected dose/gram

IN: Endpoint output: Biodistribution: PiP tumor of O=C([O-])CN1CCN(CC(=O)[O-])CCN(CC(=O)NCCCCC(=O)N(CCCC[C@H](NC(=O)N[C@@H](CCC(=O)O)C(=O)O)C(=O)O)Cc2ccc([211At])cc2)CCN(CC(=O)[O-])CC1.[Lu+3] [[^211At]VK-02-90-Lu] . Value?
OUT: 18 ± 8 % injected dose/gram

====

Exercise: for every item that follows, state its recorded Biodistribution: Lacrimal gland.
Tested on: PSMA+ PC-3 PiP and PSMA− PC-3 flu tumors
Details: 1 h; co-injection 0.5 nmole YC-I-27
Give bare numbers, in % injected dose/gram.

O=C([O-])CN1CCN(CC(=O)[O-])CCN(CC(=O)NCCCCC(=O)N(CCCC[C@H](NC(=O)N[C@@H](CCC(=O)O)C(=O)O)C(=O)O)Cc2ccc([211At])cc2)CCN(CC(=O)[O-])CC1.[Lu+3] [[^211At]VK-02-90-Lu] ... 0
O=C([O-])CN1CCN(CC(=O)[O-])CCN(CC(=O)NCCCCC(=O)N(CCCC[C@H](NC(=O)N[C@@H](CCC(=O)O)C(=O)O)C(=O)O)Cc2ccc([125I])cc2)CCN(CC(=O)[O-])CC1.[Lu+3] [[^125I]VK-02-90-Lu] ... 0.5
O=C(O)CC[C@H](NC(=O)N[C@@H](CCC(=O)NCCc1ccc([125I])cc1)C(=O)O)C(=O)O [[^125I]HS-549] ... 1.1

IN: Endpoint output: Biodistribution: Lacrimal gland of O=C(O)CC[C@H](NC(=O)N[C@@H](CCCCN(Cc1ccc([125I])cc1)C(=O)CCCCNC(=O)CN1CCN(CC(=O)O)CCN(CC(=O)O)CCN(CC(=O)O)CC1)C(=O)O)C(=O)O [[^125I]VK-02-90] . Value?
OUT: 0.75

====

Exercise: for every item that follows, state its recorded Biodistribution: Blood.
Tested on: PSMA+ PC-3 PiP and PSMA− PC-3 flu tumors
Conditions: 24 h; co-injection 0.5 nmole YC-I-27

O=C(O)CC[C@H](NC(=O)N[C@@H](CCCCN(Cc1ccc([125I])cc1)C(=O)CCCCNC(=O)CN1CCN(CC(=O)O)CCN(CC(=O)O)CCN(CC(=O)O)CC1)C(=O)O)C(=O)O [[^125I]VK-02-90] ... 0.001 ± 0.001 % injected dose/gram

Dear colleague, could you please provide Biodistribution: Blood for the molecules listed below?
1. O=C([O-])CN1CCN(CC(=O)[O-])CCN(CC(=O)NCCCCC(=O)N(CCCC[C@H](NC(=O)N[C@@H](CCC(=O)O)C(=O)O)C(=O)O)Cc2ccc([211At])cc2)CCN(CC(=O)[O-])CC1.[Lu+3] [[^211At]VK-02-90-Lu]
2. O=C([O-])CN1CCN(CC(=O)[O-])CCN(CC(=O)NCCCCC(=O)N(CCCC[C@H](NC(=O)N[C@@H](CCC(=O)O)C(=O)O)C(=O)O)Cc2ccc([125I])cc2)CCN(CC(=O)[O-])CC1.[Lu+3] [[^125I]VK-02-90-Lu]
3. O=C(O)CC[C@H](NC(=O)N[C@@H](CCC(=O)NCCc1ccc([125I])cc1)C(=O)O)C(=O)O [[^125I]HS-549]

OUT:
1: 0.03 ± 0.3 % injected dose/gram; 2: 0.1 ± 0.01 % injected dose/gram; 3: 0.6 ± 0.3 % injected dose/gram

====

System: PSMA+ PC-3 PiP and PSMA− PC-3 flu tumors
Details: 4 h; No CI
Exercise: for every item that follows, state its recorded Biodistribution: stomach.
// return the numeric value with its unit appended

The cases that follow already have their Biodistribution: stomach on record.
O=C([O-])CN1CCN(CC(=O)[O-])CCN(CC(=O)NCCCCC(=O)N(CCCC[C@H](NC(=O)N[C@@H](CCC(=O)O)C(=O)O)C(=O)O)Cc2ccc([125I])cc2)CCN(CC(=O)[O-])CC1.[Lu+3] [[^125I]VK-02-90-Lu] ... 0.8 ± 0.5 % injected dose/gram
O=C([O-])CN1CCN(CC(=O)[O-])CCN(CC(=O)NCCCCC(=O)N(CCCC[C@H](NC(=O)N[C@@H](CCC(=O)O)C(=O)O)C(=O)O)Cc2ccc([211At])cc2)CCN(CC(=O)[O-])CC1.[Lu+3] [[^211At]VK-02-90-Lu] ... 0.3 ± 0.2 % injected dose/gram
O=C(O)CC[C@H](NC(=O)N[C@@H](CCCCN(Cc1ccc([125I])cc1)C(=O)CCCCNC(=O)CN1CCN(CC(=O)O)CCN(CC(=O)O)CCN(CC(=O)O)CC1)C(=O)O)C(=O)O [[^125I]VK-02-90] ... 0.4 ± 0.2 % injected dose/gram

--- query ---
IN: Endpoint output: Biodistribution: stomach of O=C(O)CC[C@H](NC(=O)N[C@@H](CCC(=O)NCCc1ccc([125I])cc1)C(=O)O)C(=O)O [[^125I]HS-549] . Value?
OUT: 0.5 ± 0.2 % injected dose/gram

====

Tested on: PSMA+ PC-3 PiP and PSMA− PC-3 flu tumors
Conditions: 24 h; co-injection 0.5 nmole YC-I-27
measure-name: Biodistribution: stomach (% injected dose/gram)
Answers are plain numbers, in % injected dose/gram.

The cases that follow already have their Biodistribution: stomach on record.
O=C(O)CC[C@H](NC(=O)N[C@@H](CCC(=O)NCCc1ccc([125I])cc1)C(=O)O)C(=O)O [[^125I]HS-549] ... 0.1
O=C([O-])CN1CCN(CC(=O)[O-])CCN(CC(=O)NCCCCC(=O)N(CCCC[C@H](NC(=O)N[C@@H](CCC(=O)O)C(=O)O)C(=O)O)Cc2ccc([211At])cc2)CCN(CC(=O)[O-])CC1.[Lu+3] [[^211At]VK-02-90-Lu] ... 0.4
O=C(O)CC[C@H](NC(=O)N[C@@H](CCCCN(Cc1ccc([125I])cc1)C(=O)CCCCNC(=O)CN1CCN(CC(=O)O)CCN(CC(=O)O)CCN(CC(=O)O)CC1)C(=O)O)C(=O)O [[^125I]VK-02-90] ... 0.06

--- query ---
IN: Endpoint output: Biodistribution: stomach of O=C([O-])CN1CCN(CC(=O)[O-])CCN(CC(=O)NCCCCC(=O)N(CCCC[C@H](NC(=O)N[C@@H](CCC(=O)O)C(=O)O)C(=O)O)Cc2ccc([125I])cc2)CCN(CC(=O)[O-])CC1.[Lu+3] [[^125I]VK-02-90-Lu] . Value?
OUT: 0.04

====

Test system: PSMA+ PC-3 PiP and PSMA− PC-3 flu tumors
Conditions: 1 h; No CI
measure-name: Biodistribution: spleen (% injected dose/gram)
Give bare numbers, in % injected dose/gram.

The cases that follow already have their Biodistribution: spleen on record.
O=C([O-])CN1CCN(CC(=O)[O-])CCN(CC(=O)NCCCCC(=O)N(CCCC[C@H](NC(=O)N[C@@H](CCC(=O)O)C(=O)O)C(=O)O)Cc2ccc([211At])cc2)CCN(CC(=O)[O-])CC1.[Lu+3] [[^211At]VK-02-90-Lu] ... 2.5
O=C(O)CC[C@H](NC(=O)N[C@@H](CCC(=O)NCCc1ccc([125I])cc1)C(=O)O)C(=O)O [[^125I]HS-549] ... 6.8

Dear colleague, could you please provide Biodistribution: spleen for the molecules listed below?
1. O=C([O-])CN1CCN(CC(=O)[O-])CCN(CC(=O)NCCCCC(=O)N(CCCC[C@H](NC(=O)N[C@@H](CCC(=O)O)C(=O)O)C(=O)O)Cc2ccc([125I])cc2)CCN(CC(=O)[O-])CC1.[Lu+3] [[^125I]VK-02-90-Lu]
2. O=C(O)CC[C@H](NC(=O)N[C@@H](CCCCN(Cc1ccc([125I])cc1)C(=O)CCCCNC(=O)CN1CCN(CC(=O)O)CCN(CC(=O)O)CCN(CC(=O)O)CC1)C(=O)O)C(=O)O [[^125I]VK-02-90]

OUT:
1: 4.3; 2: 40
